Here the recorded melting point is given for each entry.
Give your result in °C as a bare value.

See these solved cases before continuing.
CCCC1=C(C(=O)OCC)C(c2cnc[nH]2)c2c[nH]nc2N1 (stereo not shown) = 200
COc1ccccc1C1=C(C#N)C(c2ccccc2OC)c2c[nH]nc2N1 (stereo not shown) = 220
CCCC1=C(C#N)C(c2ccccc2Cl)c2c(n[nH]c2-c2cccc3ccccc23)N1 (stereo not shown) = 254
CCCC1=C(C(=O)OCC)C(c2cccc(F)c2F)c2c[nH]nc2N1 (stereo not shown) = 207
CC(=O)CC1=C(C#N)C(c2cccc3nonc23)c2c[nH]nc2N1 (stereo not shown) = 200
CC(=O)N1CCCC(C2=C(C#N)C(c3cccc4nonc34)c3c[nH]nc3N2)C1 (stereo not shown) = 219
CCCCC1=C(C(=O)OCC)C(c2ccccc2Cl)c2c[nH]nc2N1 (stereo not shown) = 209

Let us examine a further case.
Given the compound CCCC1=C(C(=O)OCC)C(c2ccccc2OC)c2c[nH]nc2N1 (stereo not shown) , what is its reported melting point?
169
